Source: paper PMC7819943

- Target: OsWRKY34 (Oryza sativa, UniProt Q0JBA9 1-250)
- Sequence (Q0JBA9 entry or part of it): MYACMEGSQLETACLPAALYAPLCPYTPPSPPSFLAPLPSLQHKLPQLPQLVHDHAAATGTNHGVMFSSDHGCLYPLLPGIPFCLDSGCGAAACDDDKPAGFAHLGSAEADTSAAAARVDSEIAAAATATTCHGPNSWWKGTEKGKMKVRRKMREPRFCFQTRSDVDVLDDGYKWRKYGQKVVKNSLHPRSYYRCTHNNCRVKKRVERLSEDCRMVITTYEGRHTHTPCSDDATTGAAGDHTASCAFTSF
- Assay overview: protein-binding microarray (RPBM); PBS, 2% BSA, 51.3 ng/ul salmon testes DNA, 50 uM zinc acetate, 200 nM TF, 25 C, 1 h; high values mean tight binding
- Condition set: protein: recombinant; tags: N-terminal polyhistidine and DsRed monomer fusion (pET32a); label: CyDye5-dUTP incorporated in the synthesized complementary strand; 3' TTTTT single-stranded linker to array surface; dsDNA, one strand shown
In all, about 68,000 sequences were measured (“fluorescence intensity (a.u.)”: median about 9,100, highest 2% from about 16,000 on). Many of the other results were omitted from the sample, so the highest values are more common in it than they were.

Sequence input: CCGTTTTTTAATAGATAACGCTGTTGACTTTTTCTTATATCGGAGTCACCTAGTGCAG
binding signal: 11200 fluorescence intensity (a.u.)

Sequence input: TTTTCAGTAGATAACATCGTTGACTTTTCAACGAATATTTCGGAGTCACCTAGTGCAG
binding signal: 14400 fluorescence intensity (a.u.)

Sequence input: CACCAGCATCCTCGCACGGTCGCGACCCCTCCCGCACCTCCGGAGTCACCTAGTGCAG
binding signal: 8200 fluorescence intensity (a.u.)

Sequence input: TGGTTCTTGCTCTTGTTCTTGCTGCTGCTGCTTTTGCTCTCGGAGTCACCTAGTGCAG
binding signal: 9380 fluorescence intensity (a.u.)

Sequence input: AACCACCTGAATTTCGTCGAATTTTACCAATTCTGCTGAACGGAGTCACCTAGTGCAG
binding signal: 9120 fluorescence intensity (a.u.)

Sequence input: TTTTTAATAGATAACGTCGTTGACTTTTTCTCACATGTTTCGGAGTCACCTAGTGCAG
binding signal: 25600 fluorescence intensity (a.u.)

Sequence input: GCTCGCCCGTCTTTCGCTCTGCCCGCAGCCCGCCGCCGCTCGGAGTCACCTAGTGCAG
binding signal: 14000 fluorescence intensity (a.u.)

Sequence input: GGCTGCCTCCTCTCCTCATCCCTGCACCTACACTCCAATACGGAGTCACCTAGTGCAG
binding signal: 8530 fluorescence intensity (a.u.)

Sequence input: TATTATTATGATGGGTTTGTATATTAAAATTGTCAGTTTGCGGAGTCACCTAGTGCAG
binding signal: 8110 fluorescence intensity (a.u.)

Sequence input: TCTCTTTCTCTCTCTCCTCTTCTTCCTTGGCGAGTTGTGCCGGAGTCACCTAGTGCAG
binding signal: 8080 fluorescence intensity (a.u.)

Sequence input: GCTATGAGATTTATATATTTTTTTGTCCTGGGCTTCTTTTCGGAGTCACCTAGTGCAG
binding signal: 9510 fluorescence intensity (a.u.)

Sequence input: GAGTAGTAAGTTATATCCCTCAACCATTTCACTTCACACACGGAGTCACCTAGTGCAG
binding signal: 9600 fluorescence intensity (a.u.)

Sequence input: TTCCTTTTGTGTTGTTTCCCTTTCAGTTTCATCTTTTGCTCGGAGTCACCTAGTGCAG
binding signal: 8110 fluorescence intensity (a.u.)

Sequence input: GTTTTTTAATAGATAACGCCGTTGACTTTTTTTCACATGTCGGAGTCACCTAGTGCAG
binding signal: 21500 fluorescence intensity (a.u.)

Sequence input: CATGTCTATCTTTCTACTATTTATTTTTTTTTGGCAGAGACGGAGTCACCTAGTGCAG
binding signal: 12700 fluorescence intensity (a.u.)

Sequence input: GCGGTGGTGGACAGTCCCAGACTGACTTGTGGTGGGGACTCGGAGTCACCTAGTGCAG
binding signal: 9560 fluorescence intensity (a.u.)

Sequence input: CAGATCGACTCGACTCGACCAGGTTCTCTCGTTTTTACTCCGGAGTCACCTAGTGCAG
binding signal: 9940 fluorescence intensity (a.u.)

Sequence input: TGTTCTACTTGGCTGTCTCATACTTTTTTTATTTCTCTCTCGGAGTCACCTAGTGCAG
binding signal: 11200 fluorescence intensity (a.u.)

Sequence input: GTTGTCTAGTGCTTGCTATTCTTCTACTAGTAGTATTATACGGAGTCACCTAGTGCAG
binding signal: 9570 fluorescence intensity (a.u.)
